measured parameter: melting point

# annotated cases, reported melting point shown
[[record]]
compound = "COc1cc(/C=C(\\C#N)S(=O)(=O)Nc2ccc(F)cc2)cc(OC)c1OC"
measured_parameter = "melting point"
recorded_result = "179 to 182 °C"

[[record]]
compound = "COc1cc(/C=C(\\C#N)S(=O)(=O)Nc2ccc(C)cc2C)cc(OC)c1OC"
measured_parameter = "melting point"
recorded_result = "178 to 180 °C"

[[record]]
compound = "Cc1ccc(NS(=O)(=O)/C(C#N)=C/c2ccc(C)s2)c(C)c1"
measured_parameter = "melting point"
recorded_result = "158 to 160 °C"

[[record]]
compound = "CCOc1cc(/C=C(\\C#N)S(=O)(=O)Cc2ccc(Cl)cc2)ccc1O [Example 74]"
measured_parameter = "melting point"
recorded_result = "150 to 165 °C"

[[record]]
compound = "COc1cc(OC)c(/C=C(\\C#N)S(=O)(=O)Nc2ccc(F)cc2)c(OC)c1"
measured_parameter = "melting point"
recorded_result = "169 to 171 °C"

[[record]]
compound = "COc1ccc(/C=C(\\C#N)S(=O)(=O)Cc2ccc(Cl)cc2Cl)cc1OC"
measured_parameter = "melting point"
recorded_result = "149 to 153 °C"

[[record]]
compound = "Cc1ccc(C)c(/C=C(\\C#N)S(=O)(=O)Cc2ccc(Cl)cc2)c1"
measured_parameter = "melting point"
recorded_result = "123 to 126 °C"

[[record]]
compound = "N#C/C(=C\\c1c(F)c(F)c(F)c(F)c1F)S(=O)(=O)Cc1ccc(Br)cc1"
measured_parameter = "melting point"
recorded_result = "146 to 148 °C"


Find the recorded melting point belonging to Cc1ccc(NS(=O)(=O)/C(C#N)=C/c2cc(C)ccc2C)c(C)c1 and report it.
139 to 141 °C

Query (compound): COc1ccc(CS(=O)(=O)/C(C#N)=C/c2ccc(O)c(O)c2)cc1 ; field requested: melting point
144 to 146 °C

Please report the recorded melting point for COc1ccc(/C=C(\C#N)S(=O)(=O)Cc2ccc(Cl)cc2)cc1O .
155 to 165 °C

Please look up its melting point: COc1ccc(CS(=O)(=O)/C(C#N)=C/c2ccc(F)cc2F)cc1
138 to 140 °C

# query: melting point of entry Cc1ccc(/C=C(\C#N)S(=O)(=O)Nc2ccc(F)cc2)s1
133 to 134 °C

melting point lookup needed for COc1ccc(/C=C(\C#N)S(=O)(=O)Nc2ccc(Br)cc2)c(OC)c1OC , thanks.
146 to 148 °C

Form field: reported melting point of COc1cc(OC)c(/C=C(\C#N)S(=O)(=O)Cc2ccc(OC)c([N+](=O)[O-])c2)c(OC)c1
184 to 186 °C

# get_value(readout='melting point', item= COc1ccc(/C=C(\C#N)S(=O)(=O)Cc2ccc(Cl)cc2Cl)c(OC)c1OC )
150 to 165 °C

Which melting point is reported for this compound? COc1cc(OC)c(/C=C(\C(N)=O)S(=O)(=O)Cc2ccc(Cl)cc2Cl)c(OC)c1
201 to 204 °C

What value of measured melting point is listed for Cc1ccc(NS(=O)(=O)/C(C#N)=C/c2ccc(C)c(C)c2)c(C)c1 ?
166 to 169 °C

Requested read-out: melting point. Entry: COc1ccccc1/C=C(\C#N)S(=O)(=O)Cc1ccccc1
169 to 172 °C

Item under review: COc1ccc(NS(=O)(=O)/C(C#N)=C/c2cc(OC)c(OC)cc2OC)cc1 . Reported melting point?
171 to 173 °C

Please give the measured melting point for this compound: N#C/C(=C\c1ccc(O)cc1O)S(=O)(=O)Cc1ccc(F)cc1
225 to 234 °C

Value lookup for melting point; key = COc1ccc(NS(=O)(=O)/C(C#N)=C/c2ccc(Br)cc2)cc1 [Example 291]
102 to 103 °C

Look up melting point: N#C/C(=C\c1cccc(O)c1)S(=O)(=O)Cc1cccc(Br)c1
160 to 165 °C

Item Cc1ccc(/C=C(\C#N)S(=O)(=O)Cc2ccc(Cl)cc2Cl)s1 has what recorded melting point?
118 to 124 °C

Need melting point of COc1ccc(NS(=O)(=O)/C(C#N)=C/c2c(F)c(F)c(F)c(F)c2F)cc1 , thanks.
100 to 102 °C

For the compound shown here, N#C/C(=C\c1ccc(Cl)cc1)S(=O)(=O)Nc1ccc(F)cc1 , give the reported melting point.
108 to 110 °C
